Measured EC50, listed per entry for reference.
- procedure text: Antiviral activity against H3N2 infected in MDCK cells measured after 24 hrs by Gaussia luciferase reporter gene method
- Assay type: functional, cell-based, H3N2 subtype
- protocol conditions: Influenza A virus
value type: EC50 (nM)

Cn1cc(SCC(=O)Nc2c(Cl)cccc2Cl)c2ccccc21	1500
CCOc1ccccc1NC(=O)CSc1c[nH]c2c(Cl)cccc12	1830
NC(=O)c1ncn([C@@H]2O[C@H](CO)[C@@H](O)[C@H]2O)n1	20500
CCOc1ccccc1NC(=O)CSc1c[nH]c2cccc(Cl)c12	2330
CCOc1ccccc1NC(=O)CSc1c[nH]c2c(Br)c(OC)ccc12	1500
CCOc1ccccc1NC(=O)CSc1c[nH]c2cc(Cl)ccc12	1580

###

- procedure text: Cytotoxicity against human HEp-2 cells assessed as reduction in cell viability measured after 48 hrs by MTS assay
- Format: cell-based
value type: log10 CC50 at 48 h (log10 of the value in µM)

CCOc1ccccc1NC(=O)CSc1c[nH]c2c(Cl)cccc12	2.42
CCOc1ccccc1NC(=O)CSc1c[nH]c2ccc(Cl)cc12	2.31
CCOc1ccccc1NC(=O)CSc1c[nH]c2c(Br)c(OC)ccc12	0.98
CCOc1ccccc1NC(=O)CSc1c[nH]c2cc(OC)ccc12	1.55
CCOc1ccccc1NC(=O)CSc1c[nH]c2cc(Cl)ccc12	1.48
O=C(CSc1c[nH]c2ccc(Cl)cc12)Nc1ccc(Cl)c(Cl)c1	1.55
CCOc1ccccc1NC(=O)CSc1c[nH]c2cccc(Cl)c12	0.85
COc1cccc2c(SCC(=O)Nc3ccc(Cl)c(Cl)c3)c[nH]c12	1.60

###

Measured CC50 at 48 h, listed per entry for reference.
- procedure text: Cytotoxicity against human HEp-2 cells assessed as reduction in cell viability measured after 48 hrs by MTS assay
- Format: cell-based
value type: CC50 at 48 h

Cn1cc(SCC(=O)Nc2cccc(Cl)c2)c2ccccc21	18.9 µM
Cn1cc(S(=O)(=O)CC(=O)Nc2cccc(Cl)c2Cl)c2ccccc21	275 µM
CCOc1ccccc1NC(=O)CSc1c[nH]c2cccc(OC)c12	220 µM
O=C(CSc1c[nH]c2c(Cl)cccc12)Nc1ccc(Cl)c(Cl)c1	32.8 µM
CCOc1ccccc1NC(=O)CSc1c[nH]c2c(OC)cccc12	0.61 µM
CCOc1ccccc1NC(=O)CSc1c[nH]c2ccc(OC)cc12	1830 µM
Cn1cc(SCC(=O)Nc2ccc(Cl)cc2Cl)c2ccccc21	> 1000 µM
O=C(CSc1c[nH]c2ccccc12)Nc1ccc(Cl)c(Cl)c1	37.5 µM
Cn1cc(S(=O)(=O)CC(=O)Nc2ccc(Cl)cc2Cl)c2ccccc21	> 1000 µM

###

- procedure text: Cytotoxicity against human HEp-2 cells assessed as cell viability at 50 uM measured after 48 hrs by MTS assay relative to control
- Type: cell-based
- protocol conditions: read-out: Activity
value type: viability at 48 h, 50 µM (%)

CCOc1ccccc1NC(=O)CSc1c[nH]c2ccccc12	65.2
O=C(CSc1c[nH]c2ccccc12)Nc1ccc(Cl)c(Cl)c1	81.8

###

- procedure text: Safety index, ratio of CC50 for HEK293T cells to EC50 for antiviral activity against Influenza A virus A/WSN/33(H1N1) infected in human HEK293T cells
- Type: toxicity, cell-based
- protocol conditions: read-out: Ratio CC50/EC50
value type: selectivity ratio

Cn1cc(SCC(=O)Nc2ccccc2Cl)c2ccccc21	> 3.59
Cn1cc(SCC(=O)Nc2cccc(Cl)c2)c2ccccc21	> 10
CCOc1ccccc1NC(=O)CSc1c[nH]c2ccc(OC)cc12	> 79.4
Cn1cc(SCC(=O)Nc2c(Cl)cccc2Cl)c2ccccc21	> 28.6
Cn1cc([S+]([O-])CC(=O)Nc2cccc(Cl)c2)c2ccccc21 (stereo unspecified)	> 2.55
COc1ccc2c(SCC(=O)Nc3ccc(Cl)c(Cl)c3)c[nH]c2c1	5

###

Measured CC50 at 48 h, listed per entry for reference.
- procedure text: Cytotoxicity against human HEp-2 cells assessed as reduction in cell viability measured after 48 hrs by MTS assay
- Type: cell-based
value type: CC50 at 48 h (µM)

Cn1cc(SCC(=O)Nc2c(Cl)cccc2Cl)c2ccccc21	23.7
O=C(CSc1c[nH]c2cccc(Cl)c12)Nc1ccc(Cl)c(Cl)c1	27.7
CCOc1ccccc1NC(=O)CSc1c[nH]c2ccccc12	20.7
Cn1cc([S+]([O-])CC(=O)Nc2ccccc2Cl)c2ccccc21 (stereo unspecified)	97.4
COc1ccc2c(SCC(=O)Nc3ccc(Cl)c(Cl)c3)c[nH]c2c1	42.7
Cn1cc([S+]([O-])CC(=O)Nc2ccc(Cl)cc2)c2ccccc21 (stereo unspecified)	61.9
Cn1cc(SCC(=O)Nc2cc(Cl)ccc2Cl)c2ccccc21	76.9
Cn1cc(SCC(=O)Nc2ccc(Cl)cc2)c2ccccc21	31.4
O=C(CSc1c[nH]c2cc(Cl)ccc12)Nc1ccc(Cl)c(Cl)c1	27.8

###

- procedure text: Safety index, ratio of CC50 for human HEp-2 cells to EC50 for GFP-fused wild-type RSV subgroup A long infected in human HEp-2 cells
- Type: toxicity, cell-based
- protocol conditions: read-out: Ratio CC50/EC50
value type: selectivity ratio

CCOc1ccccc1NC(=O)CSc1c[nH]c2ccc(Cl)cc12	11.3
CCOc1ccccc1NC(=O)CSc1c[nH]c2c(Cl)cccc12	58.8
Cn1cc([S+]([O-])CC(=O)Nc2ccccc2Cl)c2ccccc21 (centres undefined)	7.89
CCOc1ccccc1NC(=O)CSc1c[nH]c2cccc(Cl)c12	2.92
CCOc1ccccc1NC(=O)CSc1c[nH]c2ccccc12	1.76
COc1ccc2[nH]cc(SCC(=O)Nc3ccc(Cl)c(Cl)c3)c2c1	2.79
O=C(CSc1c[nH]c2ccccc12)Nc1ccc(Cl)c(Cl)c1	1.15
Cn1cc(SCC(=O)Nc2cccc(Cl)c2)c2ccccc21	0.79
NC(=O)c1ncn([C@@H]2O[C@H](CO)[C@@H](O)[C@H]2O)n1 [RIBAVIRIN]	17.3
Cn1cc(SCC(=O)Nc2ccc(Cl)c(Cl)c2)c2ccccc21	2.45
CCOc1ccccc1NC(=O)CSc1c[nH]c2c(OC)cccc12	1.42
Cn1cc(S(=O)(=O)CC(=O)Nc2cccc(Cl)c2Cl)c2ccccc21	13.8
CCOc1ccccc1NC(=O)CSc1c[nH]c2cc(Cl)ccc12	5.36
COc1ccc2c(SCC(=O)Nc3ccc(Cl)c(Cl)c3)c[nH]c2c1	7.16
CCOc1ccccc1NC(=O)CSc1c[nH]c2cc(OC)ccc12	1.53
O=C(CSc1c[nH]c2c(Cl)cccc12)Nc1ccc(Cl)c(Cl)c1	1.81
CCOc1ccccc1NC(=O)CSc1c[nH]c2ccc(OC)cc12	379
CCOc1ccccc1NC(=O)CSc1c[nH]c2c(Br)c(OC)ccc12	3.3
CCOc1ccccc1NC(=O)CSc1c[nH]c2cccc(OC)c12	17.9
O=C(CSc1c[nH]c2cccc(Cl)c12)Nc1ccc(Cl)c(Cl)c1	1.09
O=C(CSc1c[nH]c2ccc(Cl)cc12)Nc1ccc(Cl)c(Cl)c1	3.54
Cn1cc(SCC(=O)Nc2c(Cl)cccc2Cl)c2ccccc21	1.37
O=C(CSc1c[nH]c2cc(Cl)ccc12)Nc1ccc(Cl)c(Cl)c1	1.99
COc1cccc2c(SCC(=O)Nc3ccc(Cl)c(Cl)c3)c[nH]c12	2.28

###

- procedure text: Cytotoxicity against HEK293T cells assessed as reduction in cell viability measured after 48 hrs by CCK8 assay
- Type: cell-based, HEK-293T
- protocol conditions: human
Measured CC50 at 48 h, listed per entry for reference.
value type: CC50 at 48 h

CCOc1ccccc1NC(=O)CSc1c[nH]c2ncccc12	> 100 µM
Cn1cc(S(=O)(=O)CC(=O)Nc2ccc(Cl)cc2Cl)c2ccccc21	> 100 µM
COc1cccc2c(SCC(=O)Nc3ccc(Cl)c(Cl)c3)c[nH]c12	> 100 µM
Cn1cc([S+]([O-])CC(=O)Nc2ccc(Cl)cc2)c2ccccc21 (stereo unspecified)	> 100 µM
CCOc1ccccc1NC(=O)CSc1c[nH]c2c(Cl)cccc12	> 100 µM
Cn1cc([S+]([O-])CC(=O)Nc2cccc(Cl)c2)c2ccccc21 (stereo unspecified)	> 100 µM
O=C(CSc1c[nH]c2cccc(Cl)c12)Nc1ccc(Cl)c(Cl)c1	34.7 µM
Cn1cc(SCC(=O)Nc2ccc(Cl)cc2Cl)c2ccccc21	> 100 µM
CCOc1ccccc1NC(=O)CSc1c[nH]c2ccc(OC)cc12	> 100 µM
CCOc1ccccc1NC(=O)CSc1c[nH]c2c(Br)c(OC)ccc12	> 100 µM
COc1ccc2[nH]cc(SCC(=O)Nc3ccc(Cl)c(Cl)c3)c2c1	61.8 µM

###

- Tested on: Influenza A virus
- procedure text: Antiviral activity against Influenza A virus A/WSN/33(H1N1) infected in human HEK293T cells measured after 24 hrs by Gaussia luciferase reporter gene method
- Assay type: functional, organism-based
- protocol conditions: A/WSN/1933(H1N1), HEK-293T
value type: log10 of EC50 (log10 of the value in µM)

CCOc1ccccc1NC(=O)CSc1c[nH]c2c(Cl)cccc12	0.24
COc1cccc2c(SCC(=O)Nc3ccc(Cl)c(Cl)c3)c[nH]c12	1.14
CCOc1ccccc1NC(=O)CSc1c[nH]c2c(OC)cccc12	1.09
COc1ccc2[nH]cc(SCC(=O)Nc3ccc(Cl)c(Cl)c3)c2c1	1.19
CCOc1ccccc1NC(=O)CSc1c[nH]c2cccc(Cl)c12	-0.24

Reference source for all entries: ChEMBL document CHEMBL4715831
